Target: acetyl cholinesterase (AChE) (Homo sapiens, UniProt P22303)
Sequence (P22303 32-614, species assumed): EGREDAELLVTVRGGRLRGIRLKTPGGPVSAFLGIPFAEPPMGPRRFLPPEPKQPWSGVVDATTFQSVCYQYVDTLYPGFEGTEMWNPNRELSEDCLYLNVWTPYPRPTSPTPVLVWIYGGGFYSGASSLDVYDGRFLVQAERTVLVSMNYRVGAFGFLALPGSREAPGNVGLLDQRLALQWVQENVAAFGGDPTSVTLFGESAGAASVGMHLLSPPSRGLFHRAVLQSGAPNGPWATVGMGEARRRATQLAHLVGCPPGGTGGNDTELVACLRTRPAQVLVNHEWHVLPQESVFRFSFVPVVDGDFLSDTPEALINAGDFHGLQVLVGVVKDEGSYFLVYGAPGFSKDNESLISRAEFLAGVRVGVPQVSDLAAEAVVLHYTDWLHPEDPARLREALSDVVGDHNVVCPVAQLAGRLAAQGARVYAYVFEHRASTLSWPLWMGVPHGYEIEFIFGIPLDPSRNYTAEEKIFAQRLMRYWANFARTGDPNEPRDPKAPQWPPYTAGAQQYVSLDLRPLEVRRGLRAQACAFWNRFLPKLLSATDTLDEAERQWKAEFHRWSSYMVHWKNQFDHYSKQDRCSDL
# strict inequality: IC50 < 2000 nM yields fulfilled, everything else yields not fulfilled

# Molecule, System tested, Class assignment
records = [
    ("Fc1cc(F)cc(Cc2nnc(Nc3ccc(F)cc3F)o2)c1", "acetyl cholinesterase (AChE) (Homo sapiens, UniProt P22303)", "fulfilled"),
    ("Cc1c(F)cccc1-c1nnc(Nc2ccccc2)o1", "acetyl cholinesterase (AChE) (Homo sapiens, UniProt P22303)", "not fulfilled"),
    ("Cc1ccc(F)c(-c2nnc(Nc3ccccc3F)o2)c1", "acetyl cholinesterase (AChE) (Homo sapiens, UniProt P22303)", "fulfilled"),
]

Here is the next item to consider.
Item N#Cc1cccc(Nc2nnc(-c3ccncc3)o2)c1 : IC50 beneath 2000 nM, strictly?
fulfilled

Values from paper PMC10253498
